Origin of the recorded values: ChEMBL document CHEMBL1961873

assayed target: Proto-oncogene tyrosine-protein kinase Src (Homo sapiens);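 note: each value is an averaged percent inhibition of SRC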
test context: at 1 µM
measured quantity: inhibition (%)
// units = %; emit number, no label

Prompt line: Fill blank: measured inhibition of the molecule `COc1cc(N2CCN(C(C)C)CC2)ccc1Nc1nc(Nc2ccc(F)cc2C(=O)NC[C@@H](O)CO)c2cc[nH]c2n1` is ____.
Response line: 9.14

Prompt line: Moving on to `NS(=O)(=O)c1ccc(N/N=C2\C(=O)Nc3ccc(C(=O)NCCCn4ccnc4)cc32)cc1`
Response line: 27.1

Prompt line: Moving on to `CCc1ccc(Oc2nccc(-c3c(-c4ccc(F)cc4)ncn3C3CCNCC3)n2)cc1`
Response line: 10

Prompt line: Moving on to `Clc1ccc(CNc2nccc(-c3cnn4ncccc34)n2)cc1`
Response line: 6.25

Prompt line: Moving on to `O=C(Nc1ccc(Oc2ccc3[nH]c(NC(=O)c4ccccc4)nc3c2)cc1)Nc1cc(C(F)(F)F)ccc1F`
Response line: 11.2

Prompt line: Moving on to `COc1ccc2ncn(-c3cc(O[C@H](C)c4ccccc4Cl)c(C(N)=O)s3)c2c1`
Response line: 5.73

Prompt line: Moving on to `COc1cc(Nc2ncc(-c3ccccc3)o2)cc(OC)c1OC`
Response line: 72.4

Prompt line: Moving on to `C[C@@H](Oc1cc(-n2cnc3ccc(OCC4CCN(C)CC4)cc32)sc1C(N)=O)c1ccccc1Cl`
Response line: 33.2

Prompt line: Moving on to `Fc1ccc(-c2ncn(C3CCNCC3)c2-c2ccnc(Oc3ccc(F)c(F)c3)n2)cc1`
Response line: 7.25

###

System: Tyrosine-protein kinase ABL1 (Homo sapiens), P00519 [Y253F]
test context: at 1 µM
Label t when inhibition >= 20%; otherwise f.

Prompt line: Could you tell me if the measured inhibition of `Fc1ccc(-c2c(-c3ccncc3)nc3n2CCS3)cc1` reaches 20% or more?
Response line: f

Prompt line: Moving on to `O=C1NC(=O)C(c2cccc(Cl)c2)=C1Nc1ccc(Cl)c(C(=O)O)c1`
Response line: f

Prompt line: Moving on to `Fc1ccc(-c2nc3n(c2-c2ccncc2)CCS3)cc1`
Response line: f

Prompt line: Moving on to `CCS(=O)(=O)c1ccc(OC)c(Nc2ncc(-c3cccc(-c4ccccc4F)c3)o2)c1`
Response line: t

Prompt line: Moving on to `NS(=O)(=O)c1ccc(N/N=C2\C(=O)Nc3ccc(C(=O)NCCCn4ccnc4)cc32)cc1`
Response line: f

Prompt line: Moving on to `Clc1ccc(CNc2nccc(-c3cnn4ncccc34)n2)cc1`
Response line: f

Prompt line: Moving on to `COc1cc(Nc2ncc3c(C)nc(-c4cccc(C(F)(F)F)c4)n3n2)cc(OC)c1OC`
Response line: f

Prompt line: Moving on to `COc1ccc2cc(-c3c(-c4ccncc4)nc(-c4ccc(S(C)(=O)=O)cc4C)n3C)ccc2c1`
Response line: f

Prompt line: Moving on to `CN(C)CCOc1ccc(-c2cc(-c3ccc4c(c3)CCC4=NO)c(-c3ccncc3)o2)cc1`
Response line: t

Prompt line: Moving on to `C/C(Nc1ccc(S(N)(=O)=O)cc1)=C1/C(=O)Nc2ccccc21`
Response line: f

###

Can you tell me inhibition for the items I'm about to list?
assayed target: Non-receptor tyrosine-protein kinase TNK1 (Homo sapiens);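 note: reported values are mean inhibition figures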
test context: at 0.1 µM
// units = %; emit number, no label

Prompt line: Any idea what inhibition came out for `C/C(Nc1ccc(S(N)(=O)=O)cc1)=C1/C(=O)Nc2ccccc21` on Non-receptor tyrosine-protein kinase TNK1 (Homo sapiens)?
Response line: -3.91

Prompt line: Moving on to `COc1cc2ncn(-c3cc(OCc4ccccc4C(F)(F)F)c(C(C)=O)s3)c2cc1OC`
Response line: 0.64

Prompt line: Moving on to `CS(=O)(=O)CCNCc1ccc(-c2ccc3ncnc(Nc4ccc(OCc5ccccc5)c(Br)c4)c3c2)o1`
Response line: 0.59

Prompt line: Moving on to `NC(=O)c1cc(-c2ccncc2)cc(-c2ccccc2)c1N`
Response line: 1.93

Prompt line: Moving on to `COc1cc2ncn(-c3cc(OCCc4ccccc4)c(C(N)=O)s3)c2cc1OC`
Response line: 2.85

Prompt line: Moving on to `CN(C)CCOc1ccc(-c2cc(-c3ccc4c(c3)CCC4=NO)c(-c3ccncc3)o2)cc1`
Response line: 2.33

Prompt line: Moving on to `Fc1ccc(-c2c(-c3ccncc3)nc3n2CCS3)cc1`
Response line: 0.74

Prompt line: Moving on to `NS(=O)(=O)c1ccc(N/N=C2\C(=O)Nc3ccc(-c4cnco4)cc32)cc1`
Response line: 9.41

Prompt line: Moving on to `NS(=O)(=O)c1ccc(N/N=C2\C(=O)Nc3ccc(C(=O)NCCCn4ccnc4)cc32)cc1`
Response line: 6.1

Prompt line: Moving on to `O=C(Nc1ccc(Oc2ccc3[nH]c(NC(=O)c4ccccc4)nc3c2)cc1)Nc1cc(C(F)(F)F)ccc1F`
Response line: 4.53

Prompt line: Moving on to `FC(F)(F)c1cccc(Nc2nccc(-c3cnn4nc(-c5ccccc5)ccc34)n2)c1`
Response line: 1.51

Prompt line: Moving on to `NC(=O)Cc1ccccc1Oc1nccc(-c2c(-c3ccc(F)cc3)ncn2C2CCNCC2)n1`
Response line: -0.61

Prompt line: Moving on to `Fc1ccc(-c2ncn(CCCN3CCOCC3)c2-c2ccncc2)cc1`
Response line: 0.29

Prompt line: Moving on to `C[C@@H](Oc1cc(-n2cnc3ccc(OC4CCN(C)CC4)cc32)sc1C(N)=O)c1ccccc1Cl`
Response line: 3.41

Prompt line: Moving on to `COc1ccc(C2=C(N3CCc4ccccc43)C(=O)NC2=O)cc1`
Response line: 4.3

Prompt line: Moving on to `Clc1ccc(CNc2nccc(-c3cnn4ncccc34)n2)cc1`
Response line: 2.4

Prompt line: Moving on to `O=C1Nc2ccc(I)cc2C1=Cc1cc(Br)c(O)c(Br)c1`
Response line: 22.7

Prompt line: Moving on to `COc1ccc2cc(-c3c(-c4ccncc4)nc(-c4ccc(S(C)(=O)=O)cc4C)n3C)ccc2c1`
Response line: 4.94

Prompt line: Moving on to `CN1CCN(CCCNc2nc3ccc(Oc4ccc(NC(=O)Nc5cc(C(F)(F)F)ccc5F)cc4)cc3[nH]2)CC1`
Response line: -0.25

Prompt line: Moving on to `CCS(=O)(=O)c1ccc(OC)c(Nc2ncc(-c3ccccc3Cl)o2)c1`
Response line: 16.9

Prompt line: Moving on to `CS(=O)(=O)CCNCc1cc(-c2cc3c(Nc4ccc(OCc5cccc(F)c5)c(Cl)c4)ncnc3s2)cs1`
Response line: 1.8

Prompt line: Moving on to Nc1nccc(-c2c(-c3ccc(F)cc3)ncn2C2CCC(O)CC2)n1 (centres undefined)
Response line: -3.34

Prompt line: Moving on to `N#Cc1ccc(Oc2nccc(-c3c(-c4ccc(F)cc4)ncn3C3CCNCC3)n2)cc1`
Response line: -0.15

Prompt line: Moving on to `CN(C)CCCNc1nccc(-c2c(-c3ccc(F)cc3)nn3cc(C(F)(F)F)ccc23)n1`
Response line: 1.15

Prompt line: Moving on to `O=C(Nc1n[nH]c2cc(-c3cc(F)ccc3F)ccc12)C1CC1`
Response line: 1.68

Prompt line: Moving on to `CCC(=O)Nc1ccc(C)c(-c2ccc(C(=O)NCC3CC3)cc2)c1`
Response line: -0.12

Prompt line: Moving on to `COc1cccc(-n2cnc3c(N/N=C/c4ccncc4)ncnc32)c1`
Response line: 1.98

Prompt line: Moving on to `Fc1ccc(-c2ncn(C3CCNCC3)c2-c2ccnc(Oc3ccc(Oc4ccccc4)cc3)n2)cc1`
Response line: 2.72

Prompt line: Moving on to `NC(=O)c1cc(-c2ccc(F)cc2)cc(-c2ccncc2)c1N`
Response line: 3.42

###

Can you tell me inhibition for the items I'm about to list?
assayed target: Tyrosine-protein kinase Yes (Homo sapiens);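 note: mean inhibition of YES, from the GSK PKIS dataset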
test context: at 0.1 µM
// units = %; emit number, no label

Prompt line: Any idea what inhibition came out for `C/C(Nc1ccc(S(N)(=O)=O)cc1)=C1/C(=O)Nc2ccccc21` on Tyrosine-protein kinase Yes (Homo sapiens)?
Response line: -1.58

Prompt line: Moving on to `Fc1ccc(-c2ncn(C3CCNCC3)c2-c2ccnc(Oc3ccc4c(c3)OCO4)n2)cc1`
Response line: 3.41

Prompt line: Moving on to `COc1cc2ncn(-c3cc(OCc4cccs4)c(C(N)=O)s3)c2cc1OC`
Response line: 4.84

Prompt line: Moving on to `Fc1ccc(-c2ncn(C3CCNCC3)c2-c2ccnc(Oc3ccc(F)c(F)c3)n2)cc1`
Response line: 2.3

Prompt line: Moving on to `NC(=O)c1cc(-c2ccc(F)cc2)cc(-c2ccncc2)c1N`
Response line: 3.3

Prompt line: Moving on to `CS(=O)(=O)CCNCc1ccc(-c2ccc3ncnc(Nc4ccc(OCc5ccccc5)c(Br)c4)c3c2)o1`
Response line: 4.45

Prompt line: Moving on to `COC(=O)Nc1nc2ccc(Sc3ccc(NC(=O)Nc4cc(C(F)(F)F)ccc4F)cc3)cc2[nH]1`
Response line: -0.49

Prompt line: Moving on to `O=C(Nc1n[nH]c2cc(-c3ccccc3)ccc12)C1CC1`
Response line: 1.86

Prompt line: Moving on to `O=C(Nc1n[nH]c2nc(-c3ccco3)ccc12)C1CC1`
Response line: 0.35

Prompt line: Moving on to `O=C1Nc2ccccc2/C1=C/Nc1ccc(-n2cncn2)cc1`
Response line: 3.29
